Target: T1, recombinant human IGF-II (Insulin-like Growth Factor II) (human, UniProt P01344 25-91, biotinylated (Biotinyl-IGF-II, GroPep) where immobilised in SPR, site not stated; not biotinylated in ITC and as SPR analyte)
T1 construct: also called IGF2; IGF-2
T1 sequence (P01344 25-91 limits assumed): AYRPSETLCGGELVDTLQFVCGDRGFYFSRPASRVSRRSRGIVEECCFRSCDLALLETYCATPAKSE
Experiment: SPR, steady-state KD relative to wild type
REPORTED_ENDPOINT: Relative Affinity

# BINDER, RESULT
data = [
    ("IGF2R domain 11 with proline at position 1544 (E1544P) (receptor) NEHDDCQVTNPSTGHLFDLSSLSGRAGFTAAYSPKGLVYMSICGENENCPPGVGACFGQTRISVGKANKRLRYVDQVLQLVYKDGSPCPSKSGLSYKSVISFVCRPEAGPTNRPMLISLDKQTCTLFFSWHTPLACEQATHHHHHH", "0.49 fold (wild type = 1.00)"),
]
